- systemUnderTest: human TRPA1 channel (Homo sapiens, UniProt O75762)
- Construct: expressed in transfected cells; host or cells: CHO cells
- Sequence (O75762 whole entry): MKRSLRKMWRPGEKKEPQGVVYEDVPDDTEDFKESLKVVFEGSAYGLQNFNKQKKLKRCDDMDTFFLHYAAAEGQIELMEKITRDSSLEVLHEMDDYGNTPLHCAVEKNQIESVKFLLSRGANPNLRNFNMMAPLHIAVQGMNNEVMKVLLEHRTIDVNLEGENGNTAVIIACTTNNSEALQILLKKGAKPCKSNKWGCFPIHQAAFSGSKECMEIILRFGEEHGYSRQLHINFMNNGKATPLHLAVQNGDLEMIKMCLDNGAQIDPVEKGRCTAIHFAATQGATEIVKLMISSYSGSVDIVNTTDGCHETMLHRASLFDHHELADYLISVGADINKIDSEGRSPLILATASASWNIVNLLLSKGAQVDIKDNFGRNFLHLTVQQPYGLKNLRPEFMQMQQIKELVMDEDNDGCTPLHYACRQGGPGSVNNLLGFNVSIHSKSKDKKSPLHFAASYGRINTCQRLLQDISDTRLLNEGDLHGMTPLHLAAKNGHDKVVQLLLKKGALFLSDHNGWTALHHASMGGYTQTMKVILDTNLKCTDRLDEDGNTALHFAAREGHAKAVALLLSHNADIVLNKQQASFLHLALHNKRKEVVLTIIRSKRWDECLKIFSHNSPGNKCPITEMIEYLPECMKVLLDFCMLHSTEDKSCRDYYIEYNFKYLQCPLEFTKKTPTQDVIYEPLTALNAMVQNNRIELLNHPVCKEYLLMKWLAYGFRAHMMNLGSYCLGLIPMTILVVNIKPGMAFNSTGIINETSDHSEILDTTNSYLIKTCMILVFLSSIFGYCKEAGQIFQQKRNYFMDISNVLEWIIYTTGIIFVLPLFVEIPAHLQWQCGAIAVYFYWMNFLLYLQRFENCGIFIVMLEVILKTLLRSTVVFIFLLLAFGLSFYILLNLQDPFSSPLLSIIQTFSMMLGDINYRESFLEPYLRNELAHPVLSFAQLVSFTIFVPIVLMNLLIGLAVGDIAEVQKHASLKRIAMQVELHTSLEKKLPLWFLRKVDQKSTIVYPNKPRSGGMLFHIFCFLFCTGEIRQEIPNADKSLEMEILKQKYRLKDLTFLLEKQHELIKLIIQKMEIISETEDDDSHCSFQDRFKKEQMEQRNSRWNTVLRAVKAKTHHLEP
- assayNotes: ScreenPatch assay (IonWorks Barracuda), agonist mode, TRPA1 expressed in CHO cells
- Type: cell-based
- measurementContext: in presence of 0.1 μM CBD + THC; read-out: EC50, CBC CRC
pEC50: −log10 of the molar value.

>  <molecule>
CCCCCc1cc(O)c2c(c1)OC(C)(CCC=C(C)C)C=C2 (stereo not shown)

>  <pEC50>
4.26

$$$$

* * *

- systemUnderTest: human TRPA1 channel (Homo sapiens, UniProt O75762)
- Construct: expressed in transfected cells; host or cells: CHO cells
- assayNotes: ScreenPatch assay (IonWorks Barracuda), agonist mode, TRPA1 expressed in CHO cells
- Type: cell-based
- measurementContext: inhibition of TRPA1 receptors, CRC 0-10 μM (footnote: IC50 is shown)
pIC50: −log10 of the molar value.

>  <compound>
N.N.N.N.N.N.N.N.N.N.N.N.N.N.[Cl-].[Cl-].[Cl-].[Cl-].[Cl-].[Cl-].[O-2].[O-2].[Ru+3].[Ru+3].[Ru+4] [Ruthenium Red, reference compound]

>  <pIC50>
5.75

$$$$
